The values you see were collected from ChEMBL document CHEMBL1132986.

- system: Phosphodiesterase 4 (Homo sapiens, UniProt P27815+Q08499+Q07343+Q08493)
- assay.summary: PDE4 30 assay to measure the percent rolipram activity of the PDE4 assay at 30 uM concentration of the compound.
- Type: protein assay
experimental.readout: PDE4 inhibition relative to rolipram (%)

Study these solved cases before continuing.
1) CCCCCCCCS(=O)(=O)n1cnc2c1c(=O)n(CCCC)c(=O)n2CCCC; 12
2) CCCCn1c(=O)c2c(ncn2S(=O)(=O)CCCCl)n(CCCC)c1=O; 71
3) CCCCOc1ccc(S(=O)(=O)n2cnc3c2c(=O)n(CCCC)c(=O)n3CCCC)cc1; 54

[I] CCCCn1c(=O)c2c(ncn2S(=O)(=O)CCC)n(CCCC)c1=O
[II] CCCCn1c(=O)c2c(ncn2S(=O)(=O)c2cc(C)ccc2C)n(CCCC)c1=O
Lab note: check whether I or II shows the higher recorded PDE4 inhibition relative to rolipram. State your choice using its label.
II
(II: 92%, I: 54%)

[P] CCCCn1c(=O)c2c(ncn2S(=O)(=O)c2ccccc2C(=O)OC)n(CCCC)c1=O
[Q] CCCCn1c(=O)c2c(ncn2S(=O)(=O)c2ccc(OC(F)(F)F)cc2)n(CCCC)c1=O
[R] CCCCn1c(=O)c2c(ncn2S(=O)(=O)c2ccc(NO)cc2)n(CCCC)c1=O
Rank descending by PDE4 inhibition relative to rolipram. # the answer lists labels in the order requested
P, R, Q
(P: 61%, R: 18%, Q: 0%)

[1] CCCCn1c(=O)c2c(ncn2S(=O)(=O)c2cc(F)ccc2C)n(CCCC)c1=O
[2] CCCCn1c(=O)c2c(ncn2S(=O)(=O)c2ccccc2F)n(CCCC)c1=O
# return whichever of 1 and 2 has the smaller PDE4 inhibition relative to rolipram State your choice using its label.
2

====

- system: Phosphodiesterase 4 (Homo sapiens, UniProt P27815+Q08499+Q07343+Q08493)
- assay.summary: PDE4 30 assay to measure the percent rolipram activity of the PDE4 assay at 30 uM concentration of the compound.
- Assay type: protein assay
experimental.readout: PDE4 inhibition relative to rolipram (%)

[1] CCCCn1c(=O)c2c(ncn2S(=O)(=O)CCCC)n(CCCC)c1=O
[2] CCCCn1c(=O)c2c(ncn2S(=O)(=O)c2ccccc2)n(CCCC)c1=O
# return whichever of 1 and 2 has the smaller PDE4 inhibition relative to rolipram State your choice using its label.
2

[I] CCCCn1c(=O)c2c(ncn2S(=O)(=O)c2ccc(OC)cc2)n(CCCC)c1=O
[II] CCCCn1c(=O)c2c(ncn2S(C)(=O)=O)n(CCCC)c1=O
# return whichever of I and II has the smaller PDE4 inhibition relative to rolipram State your choice using its label.
I
(I: 49%, II: 84%)

====

- system: Phosphodiesterase 4 (Homo sapiens, UniProt P27815+Q08499+Q07343+Q08493)
- assay.summary: Concentration at which 50% of the activity of the Phosphodiesterase 4 from Human U937 cells is inhibited
- test.parameters: u-937
pIC50: −log10 of the molar value.
experimental.readout: pIC50

Study these solved cases before continuing.
1) CCCCn1c(=O)c2c(ncn2S(=O)(=O)c2ccc(OC)c(OC)c2)n(CCCC)c1=O; 5.92
2) CCCCn1c(=O)c2c(ncn2S(=O)(=O)c2ccccc2C(=O)OC)n(CCCC)c1=O; 5.89
3) CCCCn1c(=O)c2c(ncn2S(=O)(=O)Cc2ccccc2)n(CCCC)c1=O; 5.49

[P] CCCCn1c(=O)c2c(ncn2S(=O)(=O)c2c(C)cc(C)cc2C)n(CCCC)c1=O
[Q] CCCCn1c(=O)c2c(ncn2S(=O)(=O)c2cc(C)c(Cl)cc2C)n(CCCC)c1=O
# return whichever of P and Q has the smaller pIC50 State your choice using its label.
Q
(Q: 4.63, P: 5.22)

[I] CCCCn1c(=O)c2c(ncn2S(C)(=O)=O)n(CCCC)c1=O
[II] CCCCn1c(=O)c2c(ncn2S(=O)(=O)CCCCl)n(CCCC)c1=O
# return whichever of I and II has the smaller pIC50 State your choice using its label.
I
